- System: CP203
- Protocol description: qHTS profiling for inhibitors of Plasmodium falciparum proliferation (AID 504749); also: nearly all actives have a fitted effect of over 60% in size
- Experimental setup: P. falciparum in erythrocytes, SYBR Green DNA, 72 h; series mostly up to 28.7 µM
- Procedure: NIH National Institute of Allergy and Infectious Diseases [NIAID] NIH Chemical Genomics Center [NCGC] […] Because mature erythrocytes lack DNA, only Plasmodium-derived DNA is detected. NCGC Assay Protocol Summary: The SYBR Green viability assay was adapted from a method described previously (Plouffe et al., 2008). […] The following morning, fluorescence intensity at 485(14) nm excitation and 535(25) nm emission wavelengths was measured on an EnVision (Perkin Elmer) plate reader. […]
Results filed as inconclusive are left out. The source made the active and inactive calls. Calls follow the shape of the dose curve; as a rule, active = well fitted inhibition curve with a large enough effect; inconclusive = small, poorly fitted or top-dose-only effect; inactive = flat fitted curve, though single readings scatter.
Would you mind answering with one of these outcomes? class 1 (active), class 0 (inactive)

See these solved cases before continuing.
- Compound: "CCc1ccc(C(=O)C(C)CN2CCCCC2)cc1 (stereo unspecified)"
  Qualitative label: "class 0"
- Compound: "CCCc1ncc(C[n+]2ccccc2C)c(N)n1"
  Qualitative label: "class 0"

Give the logged outcome of this assay for the following compound: `CCN(CC)CCNc1ccc(CO)c2sc3ccccc3c(=O)c12`
class 1

Now consider `CC(C)Cc1ccc(CC(=O)O)cc1` .
class 0

Now consider `c1ccc(-c2nc[nH]c2-c2ccccc2)cc1` .
class 0

Now consider `CCc1oc2ccccc2c1C(=O)c1cc(I)c(O)c(I)c1` .
class 0

Now consider `O=C(Nc1ccc([N+](=O)[O-])cc1)Nc1ccc([N+](=O)[O-])cc1` .
class 0

Now consider `CC(C)Nc1cccnc1N1CCN(C(=O)c2cc3cc(NS(C)(=O)=O)ccc3[nH]2)CC1` .
class 0

Now consider `CCCN(CCC)S(=O)(=O)c1ccc(C(=O)O)cc1` .
class 0

Now consider `Nc1ccc(S(=O)(=O)Nc2cnc3ccccc3n2)cc1` .
class 0

Now consider `CCN(CC)CCNC(=O)c1cc(Br)c(N)cc1OC` .
class 0

Now consider `COc1cc([C@H]2Oc3cc([C@H]4Oc5cc(O)cc(O)c5C(=O)[C@@H]4O)ccc3O[C@@H]2CO)ccc1O` .
class 0

Now consider `N=C(N)N1CCc2ccccc2C1` .
class 0

Now consider `OC[C@H]1O[C@@H]2O[C@H]3[C@H](O)[C@@H](O)[C@@H](O[C@H]4[C@H](O)[C@@H](O)[C@@H](O[C@H]5[C@H](O)[C@@H](O)[C@@H](O[C@H]6[C@H](O)[C@@H](O)[C@@H](O[C@H]7[C@H](O)[C@@H](O)[C@@H](O[C@H]8[C@H](O)[C@@H](O)[C@@H](O[C@H]1[C@H](O)[C@H]2O)O[C@@H]8CO)O[C@@H]7CO)O[C@@H]6CO)O[C@@H]5CO)O[C@@H]4CO)O[C@@H]3CO` .
class 0

---

- Protocol description: qHTS of pediatric cancer cell lines to identify multiple opportunities for drug repurposing: Primary screen for NB1643 cells (AID 1347099); also: nearly all actives have a fitted effect of over 50% in size
- Experimental setup: NB1643 neuroblastoma viability, CellTiter-Glo luminescence, 48 h; series mostly up to 46 µM
Records with an inconclusive call do not appear. Calls of active or inactive are those of the source. The call rests on the fitted dose curve; in most records, active means well fitted cell-killing curve with a large enough effect; inconclusive means small, poorly fitted or top-dose-only effect; inactive means no such curve, though single readings can be large or run the other way.
Would you mind answering with one of these outcomes? active, inactive

See these solved cases before continuing.
- Compound: "CC(C)Nc1cccnc1N1CCN(C(=O)c2cc3cc(NS(C)(=O)=O)ccc3[nH]2)CC1"
  Qualitative label: "inactive"
- Compound: "CCN1/C(=C/C=C/c2sc3ccccc3[n+]2CC)Sc2ccccc21"
  Qualitative label: "active"

Give the logged outcome of this assay for the following compound: CCc1ccc(C(=O)C(C)CN2CCCCC2)cc1 (configuration not stated)
inactive
